System: A498 renal
Test: NCI-60 one-dose screen, 48 h
Details: 10 µM unless noted
The panel holds about 83,000 compounds, 20% with a hit somewhere; the sample as a whole holds those more often. The source made the active and inactive calls. Rule for the calls: active = growth percent below 10; inactive = the rest.
Please answer using one outcome listed in active, inactive

Solved entries (count: 5):
molecule=Cc1ccc(C(=O)c2ccc(CC(=O)N/N=C/c3ccccc3O)n2C)cc1 answer_label=inactive
molecule=CC(C)c1ccc(C(=O)Nc2sc3c(c2C(N)=O)CCC(=O)C3)cc1 answer_label=inactive
molecule=CCCCCC(/C=N\NC(=S)N/N=C/C(=C/c1ccccc1)CCCCC)=C\c1ccccc1 answer_label=inactive
molecule=C/C(Cc1ccc(Cl)cc1)=C(\c1ccc(O)cc1)c1ccc(Cl)cc1 answer_label=inactive
molecule=CCc1ccc(CCCC(=O)O)cc1 answer_label=inactive

# outcome recorded in this test, key = `CCCCNC(=O)Oc1ccc(/C(=C(/C)Cc2ccc(OC)cc2)c2ccc(OCCN(CC)CC)cc2)cc1` inactive

# outcome recorded in this test, key = `Cc1cc(=O)oc2cc(OCc3nn4c(Nc5nc6ccccc6s5)c(-c5ccccc5)nc4s3)ccc12` inactive

# outcome recorded in this test, key = `COc1ccc2[nH]c(C(=O)N3CCN(C(=O)OCc4ccc5c(Cl)cc(Cl)c(O)c5n4)CC3)cc2c1` active

# outcome recorded in this test, key = `CCOC(=O)c1c(NC(=O)c2ccc(Cl)cc2)sc2c(CN(C)C)c(O)ccc12` inactive

# outcome recorded in this test, key = `O=C1C(Cl)=C(NCCCCCCNC2=C(Cl)C(=O)c3ccccc3C2=O)C(=O)c2ccccc21` inactive

* * *

System: M14 melanoma
Assay: NCI-60 one-dose screen, 48 h
Conditions: 10 µM unless noted
Description: Growth inhibition of the M14 human tumor cell line is measured as a screen for anti-cancer activity. Cells are grown in 96 well plates and exposed to the test compound for 48 hours. Compounds are tested at a single concentration, which is 10^-5 M for most compounds. The reported endpoint is percent growth (GI% or GIPRCNT), where numbers from 0 - 100% represent growth inhibition, and numbers from -100% - 0 represent cell death. For example, a value of 40 represents 60% growth inhibition. […]
About 83,000 compounds went through this panel and 20% of them were active in at least one assay; those are over-represented in the sample as a whole. The source made the active and inactive calls. How the source made its calls: active means growth percent below 10; inactive means the rest.
Please answer using one outcome listed in Yes = active, No = inactive

Solved entries (count: 10):
compound_string=CSc1nnc(-c2cc3c([nH]c4ccccc43)c(-c3cccc(O)c3)n2)n1-c1ccccc1 answer_label=No
compound_string=COC(=O)c1cc(N=C2NC(=O)/C(=C/C=C/c3ccccc3)S2)ccc1O answer_label=No
compound_string=COc1ccc(/C=C/C(=O)c2cc3c(N)c(C(=O)Nc4cccc5ccccc45)sc3nc2C)cc1 answer_label=No
compound_string=CCC(=C(c1ccc(OCCN2CCCCC2)cc1)c1ccc(OCCN2CCCCC2)cc1)c1ccc(Cl)cc1 answer_label=Yes
compound_string=CC(C)c1ccc(-n2c(=S)[nH]c3sc4cc(O)ccc4c3c2=O)cc1 answer_label=No
compound_string=Nc1nc2ccccc2c2c(=O)c3cccc(Cl)c3sc12 answer_label=No
compound_string=CS(=O)(=O)Nc1cncc(-c2ccc3ncnc(Nc4cncc(Cl)c4)c3c2)c1 answer_label=No
compound_string=COc1ccc(Nc2nc(-c3cc(O)c(C)c(C)c3O)cs2)cc1 answer_label=No
compound_string=COc1ccc(C(=O)c2cc3c(N)c(C(=O)Nc4ccc(C)cc4)sc3nc2C)cc1 answer_label=No
compound_string=CCC(=O)Oc1ccc(-c2ccccc2)cc1Br answer_label=No

# outcome recorded in this test, key = `COC(=O)[C@@H](CCCCNC(=O)[C@]12CCC(C)(C)C[C@@H]1C1=CC[C@@H]3[C@@]4(C)C/C(=C/c5ccco5)C(=O)C(C)(C)[C@@H]4CC[C@@]3(C)[C@]1(C)CC2)NC(=O)[C@]12CCC(C)(C)C[C@@H]1C1=CC[C@@H]3[C@@]4(C)C/C(=C/c5ccco5)C(=O)C(C)(C)[C@@H]4CC[C@@]3(C)[C@]1(C)CC2` No

# outcome recorded in this test, key = `Nc1n[nH]c2cccc(C#Cc3cccc(NC(=O)c4cc(F)cc(C(F)(F)F)c4)c3)c12` No

# outcome recorded in this test, key = `COC1=CC(c2ccc[nH]2)=N/C1=C\c1[nH]c(C)c(C(=O)OC(C)C)c1C` Yes

# outcome recorded in this test, key = `CCCCCOC(=O)c1c(C)[nH]c(/C=C2\N=C(c3ccc[nH]3)C=C2OC)c1C` Yes

# outcome recorded in this test, key = `COC(=O)c1nc(-c2ccc(C)cc2)oc1S(=O)(=O)c1cccc(OC)c1` No
